Test system: thymocytes of surrenalectomized rats
assayComment: Antiglucocorticoidal activity, incorporation of tritiated uridine in thymocytes
Type: cell-based
testContext: Rattus norvegicus, Thymocyte; second table; 5 × 10^-8 M dexamethasone + test product 10^-6 M; read-out: % of inhibition of effect of Dexamethasone
experimentalEndpoint: inhibition at 1 µM

In [3]: df
Out[3]:
                                   compound  experimentalendpoint  observedvalue
0  C[C@]12C[C@H](c3ccc([N+](C)(C)[O-])cc3)C3=C4CCC(=O)C=C4CC[C@H]3[C@@H]1CC[C@@]2(O)C#CCl [Example 26]    inhibition at 1 µM            75%
1  C#CC[C@]1(O)CC[C@H]2[C@@H]3CCC4=CC(=O)CCC4=C3[C@@H](c3ccc(N(C)C)cc3)C[C@@]21C [Example 31]    inhibition at 1 µM            99%
2  CC#C[C@]1(O)CC[C@H]2[C@@H]3CCC4=CC(=O)CCC4=C3[C@@H](c3ccc([N+](C)(C)[O-])cc3)C[C@@]21C [Example 35]    inhibition at 1 µM            50%
3  C#C[C@@]1(O)CC[C@H]2[C@@H]3CCC4=CC(=O)CCC4=C3[C@@H](c3ccc(N(C)C)cc3)C[C@@]21C [Example 21]    inhibition at 1 µM            83%

---

targetOrTestSystem: Estrogen receptor of uterus of mice (Mus musculus, UniProt P19785)
Construct: the uterus were removed and homogenized at 0° C; from tissue; host or cells: mouse uterus, 105,000 g supernatant (immature females 18 to 21 days old)
Sequence (P19785 whole entry): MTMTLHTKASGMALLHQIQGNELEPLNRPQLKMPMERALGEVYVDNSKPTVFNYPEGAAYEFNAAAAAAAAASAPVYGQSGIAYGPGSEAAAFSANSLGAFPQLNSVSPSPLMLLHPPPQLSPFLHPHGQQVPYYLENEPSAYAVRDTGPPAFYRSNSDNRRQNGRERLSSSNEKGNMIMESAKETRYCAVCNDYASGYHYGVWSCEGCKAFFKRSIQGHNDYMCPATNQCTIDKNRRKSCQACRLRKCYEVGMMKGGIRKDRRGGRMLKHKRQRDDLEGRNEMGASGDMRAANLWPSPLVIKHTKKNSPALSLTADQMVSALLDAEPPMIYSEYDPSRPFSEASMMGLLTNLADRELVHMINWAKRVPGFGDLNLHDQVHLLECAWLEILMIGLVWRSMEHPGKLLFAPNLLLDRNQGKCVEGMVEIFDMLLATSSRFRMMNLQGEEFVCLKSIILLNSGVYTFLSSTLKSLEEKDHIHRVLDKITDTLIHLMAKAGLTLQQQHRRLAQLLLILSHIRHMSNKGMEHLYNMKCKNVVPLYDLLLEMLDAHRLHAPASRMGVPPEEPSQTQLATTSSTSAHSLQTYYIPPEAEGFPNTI
assayComment: Estrogen receptor binding (displacement of tritiated estradiol)
testContext: incubation 5 H (25° C.)
experimentalEndpoint: relative affinity of tieing (ARL), Estrogen

                               samplesmiles  observedvalue
0  CC#C[C@]1(O)CC[C@H]2[C@@H]3CCC4=CC(=O)C(C)(C)CC4=C3[C@@H](c3ccc(N(C)C)cc3)C[C@@]21C          < 0,1
1  CC#C[C@]1(OC(C)=O)CC[C@H]2[C@@H]3CCc4cc(O)ccc4[C@H]3[C@@H](c3ccc(N(C)C)cc3)C[C@@]21C            0,1
2  CC#C[C@]1(O)CC[C@H]2[C@@H]3CCC4=C(CCC(=O)C4)[C@H]3[C@@H](c3ccc(N(C)C)cc3)C[C@@]21C          < 0,1

---

targetOrTestSystem: Estrogen receptor of uterus of mice (Mus musculus, UniProt P19785)
Construct: the uterus were removed and homogenized at 0° C; from tissue; host or cells: mouse uterus, 105,000 g supernatant (immature females 18 to 21 days old)
assayComment: Estrogen receptor binding (displacement of tritiated estradiol)
testContext: incubation 5 H (25° C.)
relative affinity of tieing (ARL), Estrogen values for the molecules below.
experimentalEndpoint: relative affinity of tieing (ARL), Estrogen

>>> df
                               samplesmiles                        targetortestsystem  observedvalue
0  CC#C[C@]1(O)CC[C@H]2[C@@H]3CCC4=CC(=O)[C@H](C)CC4=C3[C@@H](c3ccc(N(C)C)cc3)C[C@@]21C  Estrogen receptor of uterus of mice (Mus musculus, UniProt P19785)          < 0,1
1  CN(C)CCOc1ccc([C@H]2C[C@]3(C)[C@@H](O)CC[C@H]3[C@@H]3CCc4cc(O)ccc4[C@H]32)cc1  Estrogen receptor of uterus of mice (Mus musculus, UniProt P19785)            239
2  CC#C[C@]1(O)CC[C@H]2[C@@H]3CCC4=CC(=O)C(C#N)(C#N)CC4=C3[C@@H](c3ccc(N(C)C)cc3)C[C@@]21C  Estrogen receptor of uterus of mice (Mus musculus, UniProt P19785)          < 0,1

---

Measured relative affinity of tieing (ARL), Progestogen accompanies every entry in the list below.
targetOrTestSystem: Progestogen receptor of the uterus of rabbits (Oryctolagus cuniculus)
Construct: The uterus was removed, weighed and homogenized at 0° C; from tissue; host or cells: rabbit uterus, 105,000 g supernatant (estradiol-primed immature rabbits)
Sequence (P06186 whole entry): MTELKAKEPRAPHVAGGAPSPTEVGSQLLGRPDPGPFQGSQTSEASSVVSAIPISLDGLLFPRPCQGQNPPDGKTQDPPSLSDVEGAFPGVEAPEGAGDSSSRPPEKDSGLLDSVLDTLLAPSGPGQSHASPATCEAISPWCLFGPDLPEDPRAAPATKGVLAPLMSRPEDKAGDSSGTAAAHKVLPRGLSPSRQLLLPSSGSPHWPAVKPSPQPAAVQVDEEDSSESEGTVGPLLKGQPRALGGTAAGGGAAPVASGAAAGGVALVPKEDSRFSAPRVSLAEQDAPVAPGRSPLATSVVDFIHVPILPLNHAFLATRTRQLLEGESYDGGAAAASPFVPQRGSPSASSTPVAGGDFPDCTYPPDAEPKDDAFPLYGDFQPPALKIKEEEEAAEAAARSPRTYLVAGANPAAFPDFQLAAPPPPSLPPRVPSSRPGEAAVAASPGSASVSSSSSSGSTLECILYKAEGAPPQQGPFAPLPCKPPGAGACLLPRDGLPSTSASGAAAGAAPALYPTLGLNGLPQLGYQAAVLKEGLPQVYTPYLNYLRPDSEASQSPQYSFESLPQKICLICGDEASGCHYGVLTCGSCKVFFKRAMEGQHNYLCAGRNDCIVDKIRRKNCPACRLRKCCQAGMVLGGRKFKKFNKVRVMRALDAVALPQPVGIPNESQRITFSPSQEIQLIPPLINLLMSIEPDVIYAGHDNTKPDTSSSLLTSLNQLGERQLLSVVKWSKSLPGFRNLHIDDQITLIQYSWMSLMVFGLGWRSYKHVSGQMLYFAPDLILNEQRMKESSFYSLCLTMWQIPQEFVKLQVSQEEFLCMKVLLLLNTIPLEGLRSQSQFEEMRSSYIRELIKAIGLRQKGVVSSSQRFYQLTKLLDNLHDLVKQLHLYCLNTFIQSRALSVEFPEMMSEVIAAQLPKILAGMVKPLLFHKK
assayComment: Progestogen receptor binding (displacement of tritiated product R)
Parameters: species or system rabbit
testContext: second table; incubation 24 H at 0° C.
experimentalEndpoint: relative affinity of tieing (ARL), Progestogen

>>> print(df.to_string())
                               samplesmiles  observedvalue
0  C[C@]12C[C@H](c3ccc([N+](C)(C)[O-])cc3)[C@]34O[C@]35CCC(=O)C=C5CC[C@H]4[C@@H]1CC[C@@]2(O)C#CCl            0,4
1  C#C[C@]1(O)CC[C@H]2[C@@H]3CCC4=CC(=O)CCC4=C3[C@@H](c3ccc(N(C)C)cc3)C[C@@]21C            351
2  C=C(C)C#C[C@]1(O)CC[C@H]2[C@@H]3CCC4=CC(=O)CCC4=C3[C@@H](c3ccc(N(C)C)cc3)C[C@@]21C            268
3  CN(C)c1ccc([C@H]2C[C@@]3(C)[C@@H](CC[C@@]3(O)C#CCl)[C@@H]3CCC4=CC(=O)CCC4=C32)cc1            467

---

targetOrTestSystem: Gluocorticoid receptor of thymus of rats (Rattus norvegicus, UniProt P06536)
Construct: The thymus were removed and homogenized at 0° C; from tissue; host or cells: rat thymus, 105,000 g supernatant (adrenalectomized male Sprague-Dawley rats)
Sequence (P06536 whole entry): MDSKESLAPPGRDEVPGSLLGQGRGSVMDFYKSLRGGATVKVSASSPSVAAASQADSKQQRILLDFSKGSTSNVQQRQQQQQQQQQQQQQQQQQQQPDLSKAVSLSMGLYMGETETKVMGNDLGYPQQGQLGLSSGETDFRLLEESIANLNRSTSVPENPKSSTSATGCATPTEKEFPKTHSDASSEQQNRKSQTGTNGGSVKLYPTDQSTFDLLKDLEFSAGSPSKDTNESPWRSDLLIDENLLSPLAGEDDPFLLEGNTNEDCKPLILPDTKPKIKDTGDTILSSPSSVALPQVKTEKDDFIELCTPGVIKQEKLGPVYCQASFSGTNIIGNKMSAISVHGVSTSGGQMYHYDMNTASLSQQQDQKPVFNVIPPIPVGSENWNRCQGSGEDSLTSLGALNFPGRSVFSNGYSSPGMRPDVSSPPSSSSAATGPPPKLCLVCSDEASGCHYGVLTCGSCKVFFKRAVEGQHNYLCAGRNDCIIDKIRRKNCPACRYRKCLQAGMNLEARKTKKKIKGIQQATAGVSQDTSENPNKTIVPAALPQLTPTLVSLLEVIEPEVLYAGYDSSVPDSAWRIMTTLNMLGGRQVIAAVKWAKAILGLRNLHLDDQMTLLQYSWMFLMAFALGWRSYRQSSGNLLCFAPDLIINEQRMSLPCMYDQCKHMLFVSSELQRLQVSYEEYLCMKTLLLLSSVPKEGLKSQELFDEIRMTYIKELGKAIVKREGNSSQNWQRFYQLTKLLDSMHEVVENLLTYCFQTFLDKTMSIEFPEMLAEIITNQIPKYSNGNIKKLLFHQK
assayComment: Glucocorticoid receptor binding (displacement of tritiated dexamethasone)
testContext: second table; incubation 24 H at 0° C.
# maps each entry to its relative affinity of tieing (ARL), Glucocorticoid
experimentalEndpoint: relative affinity of tieing (ARL), Glucocorticoid

>>> df
                               samplesmiles  observedvalue
0  CN(C)c1ccc([C@H]2C[C@@]3(C)[C@@H](CC[C@@]3(O)C#C[Si](C)(C)C)[C@@H]3CCC4=CC(=O)CCC4=C32)cc1            104
1  C=CC[C@]1(O)CC[C@H]2[C@@H]3CCC4=CC(=O)CCC4=C3[C@@H](c3ccc(N(C)C)cc3)C[C@@]21C            221
2  CN(C)c1ccc([C@H]2C[C@@]3(C)[C@@H](CC[C@@]3(O)C#Cc3ccccc3)[C@@H]3CCC4=CC(=O)CCC4=C32)cc1             94
3  CN(C)c1ccc([C@H]2C[C@@]3(C)[C@@H](CC[C@@]3(O)C#CCl)[C@@H]3CCC4=CC(=O)CCC4=C32)cc1            292
4  C[C@]12C[C@H](c3ccc([N+](C)(C)[O-])cc3)C3=C4CCC(=O)C=C4CC[C@H]3[C@@H]1CC[C@@]2(O)C#CCl             14
5  CC#C[C@]1(O)CC[C@H]2[C@@H]3CCC4=CC(=O)CCC4=C3[C@@H](c3ccc([N+](C)(C)[O-])cc3)C[C@@]21C              5

---

inhibition at 0.01 µM by entry:
Tested on: thymocytes of surrenalectomized rats
assayComment: Antiglucocorticoidal activity, incorporation of tritiated uridine in thymocytes
Assay type: cell-based
testContext: Rattus norvegicus, Thymocyte; second table; 5 × 10^-8 M dexamethasone + test product 10^-8 M; read-out: % of inhibition of effect of Dexamethasone
experimentalEndpoint: inhibition at 0.01 µM

                               samplesmiles  observedvalue
0  CN(C)c1ccc([C@H]2C[C@@]3(C)[C@@H](CC[C@@]3(O)C#CCl)[C@@H]3CCC4=CC(=O)CCC4=C32)cc1            57%
1  CN(C)c1ccc([C@H]2C[C@@]3(C)[C@@H](CC[C@@]3(O)C#Cc3ccccc3)[C@@H]3CCC4=CC(=O)CCC4=C32)cc1            18%
2  C#C[C@@]1(O)CC[C@H]2[C@@H]3CCC4=CC(=O)CCC4=C3[C@@H](c3ccc(N(C)C)cc3)C[C@@]21C             5%
3  C#CC[C@]1(O)CC[C@H]2[C@@H]3CCC4=CC(=O)CCC4=C3[C@@H](c3ccc(N(C)C)cc3)C[C@@]21C            28%

---

targetOrTestSystem: Mineralcorticoidal receptor of kidneys of the rat (Rattus norvegicus)
Construct: from tissue; host or cells: rat kidney, 105,000 g supernatant (adrenalectomized male Sprague-Dawley rats)
Sequence (P22199 whole entry): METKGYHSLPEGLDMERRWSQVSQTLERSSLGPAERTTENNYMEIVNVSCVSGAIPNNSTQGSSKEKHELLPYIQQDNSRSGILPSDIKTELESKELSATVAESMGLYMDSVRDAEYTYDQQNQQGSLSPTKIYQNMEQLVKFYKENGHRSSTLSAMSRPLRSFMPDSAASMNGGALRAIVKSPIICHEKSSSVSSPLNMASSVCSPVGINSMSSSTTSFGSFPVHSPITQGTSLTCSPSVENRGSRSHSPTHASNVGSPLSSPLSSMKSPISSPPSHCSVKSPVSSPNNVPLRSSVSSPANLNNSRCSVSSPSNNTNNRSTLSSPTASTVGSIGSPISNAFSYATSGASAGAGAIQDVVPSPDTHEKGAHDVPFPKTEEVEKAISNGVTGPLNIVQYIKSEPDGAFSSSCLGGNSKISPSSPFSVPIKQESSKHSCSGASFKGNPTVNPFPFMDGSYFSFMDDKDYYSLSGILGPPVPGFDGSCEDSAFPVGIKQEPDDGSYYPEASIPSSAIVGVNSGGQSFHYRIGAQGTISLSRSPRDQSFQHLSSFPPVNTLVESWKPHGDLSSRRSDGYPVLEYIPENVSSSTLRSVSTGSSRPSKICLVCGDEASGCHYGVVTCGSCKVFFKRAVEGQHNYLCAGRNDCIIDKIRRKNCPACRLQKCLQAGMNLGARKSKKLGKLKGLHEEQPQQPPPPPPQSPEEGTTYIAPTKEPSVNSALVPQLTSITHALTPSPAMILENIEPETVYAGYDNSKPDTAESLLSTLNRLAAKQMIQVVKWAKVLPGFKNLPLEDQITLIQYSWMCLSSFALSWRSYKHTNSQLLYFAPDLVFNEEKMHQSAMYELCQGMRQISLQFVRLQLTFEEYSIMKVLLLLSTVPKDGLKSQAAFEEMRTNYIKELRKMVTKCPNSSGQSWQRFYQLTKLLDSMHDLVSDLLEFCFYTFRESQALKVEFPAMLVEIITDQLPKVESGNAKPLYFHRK
assayComment: Mineralcorticoidal receptor binding (displacement of tritiated aldosterone)
testContext: incubation 1 H at 0° C.
experimentalEndpoint: relative affinity of tieing (ARL), Mineralocorticoid

                               samplesmiles                        targetortestsystem  observedvalue
0  CC#C[C@]1(O)CC[C@H]2[C@@H]3CCC4=C(CCC(=O)C4)[C@H]3[C@@H](c3ccc(N(C)C)cc3)C[C@@]21C  Mineralcorticoidal receptor of kidneys of the rat (Rattus norvegicus)            1,5
1  CC#C[C@]1(O)CC[C@H]2[C@@H]3CCC4=CC(=O)[C@H](C)CC4=C3[C@@H](c3ccc(N(C)C)cc3)C[C@@]21C  Mineralcorticoidal receptor of kidneys of the rat (Rattus norvegicus)          < 0,1
2  CC#C[C@]1(O)CC[C@H]2[C@@H]3CCC4=CC(=O)[C@@H](C)CC4=C3[C@@H](c3ccc(N(C)C)cc3)C[C@@]21C  Mineralcorticoidal receptor of kidneys of the rat (Rattus norvegicus)          < 0,1
